B1: SLC6A17 (parent)
chain: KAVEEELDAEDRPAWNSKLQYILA

- Variants of: B1
- PROTOCOL DETAILS: protein stability index of a GFP-peptide fusion (GPS, HEK-293T) (PSI 1-6); higher = more stable;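 note: lentivirally expressed fusions sorted by FACS into six bins by GFP to DsRed ratio, PSI derived from sequencing read proportions per bin multiplied by bin number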
- CONDITION CONTEXT: c terminus: a fixed tail appended
ENDPOINT LABEL: protein stability index
Answer field: number only, no words.

Some variants with recorded protein stability index:
KAVEEELDAEDYPAWNSKLQYILA [R12Y]; 2.2
KAVEEELDAEDRPAINSKLQYILA [W15I]; 3.69
KAVEEELDAEDRPAWCSKLQYILA [N16C]; 2.08
KAWEEELDAEDRPAWNSKLQYILA [V3W]; 1.7
KAVEEELDAEDRPAWNSKLQHILA [Y21H]; 3.16

Switching to the query record.
Would you kindly share the measured protein stability index for KAVEEELDAEDRPAWNSKHQYILA [L19H] ?
3.69
